- TEST_SYSTEM: T1, C-10 peptide (PSMGFR minus 10 amino acids from the C-terminus)
- T1 construct: also called C-10 PSMGFR; PSMGFR C-10
- T1 peptide: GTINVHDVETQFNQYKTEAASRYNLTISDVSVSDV
- TEST_SUMMARY: ELISA
ENDPOINT_NAME: binding result

[
  {
    "BINDER": "29H1 mouse monoclonal antibody (antibody, V domains shown, raised against N+20/C-27; also called N+20/C-27 antibody 29H1) VH: EVKLEESGGGLVQPGGSMKLSCAASGFTFSDAWMDWVRQSPEKGLEWVAEIRSKATNHATYYAESVKGRFTISRDDSKSSVYLQMNSLRAEDTGIYYCTPLLYGFAYWGQGTLVTVSA VL: DVVMTQTPLSLPVSLGDQASISCRSGQSLVHSNGHTYLHWYLQKPGQSPRLLIYKVSNRFSGVPDRFSGSGSRADFTLKISRVEAEDLGVYFCSQTTHVPWTFGGGTKLEIK",
    "binding result": "binds"
  },
  {
    "BINDER": "1E4 mouse monoclonal antibody (antibody, V domains shown, raised against N+20/C-27; also called MN-1E4; N+20/C-27 antibody 1E4) VH: QVQLQQSGAELVRPGSSVKISCKASGYAFSTYWMNWVKQRPGQGLEWIGQIYPGDSDTNYNGKFKGKATLTADKSSNTAYMQLSSLTSEDSAVFFCARGNHASMDYWGQGTSVTVSS VL: DVVMTQTPLSLPVSLGDQASISCRSSQSLVHSNGNTYLHWYLQKPGQSPKLLIYKVSNRFSGVPDRFSGSGSGTDFTLKISRVEAEDLGVYFCSQKTHVPWTFGGGTKLEIK",
    "binding result": "binds"
  },
  {
    "BINDER": "3C2B1 mouse monoclonal antibody (antibody, V domains shown, raised against PSMGFR; also called MN-3C2B1; anti-PSMGFR antibody 3C2B1) VH: EVMLVESGGGLVKPGGSLKLSCAASGITFSTYTMSWVRQTPEKRLEWVATISTGGDKTYYSDSVKGRFTISRDNAKNNLYLQMSSLRSEDTALYYCARGTTAMYYYAMDYWGQGTSVTVSS VL: DIVLTQSPASLAVSLGQRATISCRASKSISTSDYNYIHWYQQKPGQPPKLLIYLASNLESGVPARFSGSGSGTDFTLNIHPVEEEDAATYYCQHSRELPLTFGAGTKLELK",
    "binding result": "no binding"
  },
  {
    "BINDER": "31A1 mouse monoclonal antibody (antibody, V domains shown, raised against N+20/C-27; also called N+20/C-27 antibody 31A1) VH: QVQLQQSGAELAKPGASVKMSCKASGYTFTSYWMHWVKQRPGQGLEWIGYINPSTGYTEYNQKFKDKATLTADKSSSTAYMQLSSLTSEDSAVYYCARAYIDYWGQGTTLTVSS VL: DVLMTQTPLSLPVSLGDQASFSCRSSQSIVHSNGNTYLEWYLQKPGQSPKLLIYKVSNRFSGVPDRFSGSGSGTDFTLKINRVEAEDLGVYYCFQVSHFPWTFGGGTKLEIK",
    "binding result": "binds"
  }
]

Below are 3 binders. Give each one its binding result.
1. 32C1 mouse monoclonal antibody (antibody, V domains shown, raised against N+20/C-27; also called N+20/C-27 antibody 32C1) VH: EVKLEESGGGLVQSGGSMKLSCVASGFTFSNYWMNWVRQSPEKGLEWVAEIRLKSNNYAIHYAESVKGRFTISRDDSKSSVYLQMNNLRAEDTGIYYCTRVPGLDAYWGQGTLVTVSA VL: DVVMTQTPLSLPVSLGDQASISCRSSQSLVHSNGNTYLHWYLQKPGQSPKLLIYKVSNRFSGVPDRFSGSGSGTDFTLKISSVEAEDLGVYFCSQITHVPYTFGGGTNLEIK
2. 18B4 mouse monoclonal antibody (antibody, V domains shown, raised against PSMGFR; also called anti-PSMGFR antibody 18B4) VH: EVKLEESGGGLVQPGGSMKLSCAASGFTFNDAWMDWVRQSPEKGLEWVAEIRSTANIHTTYYAESVQGRFTISRDDSKSSVYLQMNSLRAEDTGIYYCTPLLYGFAYWGQGTLVTVSA VL: DVVMTQSPLSLPVSLGDQASISCRTSQSLVHSNGNTYLHWHLQKPGQSPKVLIYKVSSRFSGVPDRFSGSGSGTDFTLKISRVEAEDLGVYFCSQNTHVPYTFGGGTKLEIK
3. MN-E6 mouse monoclonal anti-MUC1* antibody (antibody, V domains shown, mouse monoclonal raised against PSMGFR; also called Min-E6) VH: EVKVVESGGDLVKPGGSLKLSCVVSGFTFSRYGMSWVRQTPGKRLEWVATISGGGTYIYYPDSVKGRFTISRDNAKNTLYLQMSSLKSEDTAMYHCTRDNYGRNYDYGMDYWGQGTSVTVSS VL: QIVLTQSPAIMSASPGEEVTLTCSATSSVSYIHWFQQRPGTSPKLWIYSTSNLASGVPVRFSGSGYGTSYSLTISRMEAEDAATYYCQQRSSSPFTFGSGTKLEIK

A:
1: binds; 2: binds; 3: no binding
